These entries and their values trace back to paper PMC9893515.

biological target: recombinant human TDP2 (Homo sapiens); assay: Recombinant TDP2 assay; assay type: biochemical
Consider the following compounds; for each one, report its IC50.

Give the value of IC50 reported for the following: CS(=O)(=O)c1ccc(OCc2noc3c2C(=O)c2cccnc2C3=O)cc1 [Compound 67]
0.99 µM

# return recorded IC50 for entry O=C(OCC(F)(F)F)c1noc2c1C(=O)c1cccnc1C2=O [Compound 59]
14 µM

Report IC50 for O=C(OCCc1cccc(F)c1)c1noc2c1C(=O)c1cccnc1C2=O [Compound 61]
8.7 µM

Return the recorded IC50 value; entry: CCOC(=O)c1c(CN2CCN(C(C)=O)CC2)oc2c1C(=O)c1ncccc1C2=O [Compound 45]
31 µM

Please give measured IC50 of the following entry: CCOC(=O)c1c(C)oc2c1C(=O)c1nc(N3CCCCC3)ccc1C2=O [Compound 24]
44 µM

Using known records, supply IC50 for CCOC(=O)c1c(C)oc2c1C(=O)c1ccc(N3CCCCC3)nc1C2=O [Compound 31]
> 111 µM

Specify measured IC50 for CCOC(=O)c1c(C(C)C)oc2c1C(=O)c1ncccc1C2=O [Compound 39] .
25 µM

Determine its reported IC50: CCOC(=O)c1c(C)oc2c1C(=O)c1ccncc1C2=O [Compound 13]
> 111 µM

Given the compound CCOC(=O)c1c(C(C)C)oc2c1C(=O)c1cccnc1C2=O [Compound 40] , write its reported IC50.
> 111 µM

###

target: recombinant human TDP2 (Homo sapiens, UniProt O95551); experiment: Recombinant TDP2 assay; format: biochemical; details: read-out: TDP2 inhibitory activity IC50; mean ± SD from at least three independent experiments; recombinant TDP2
Sequence (O95551 whole entry): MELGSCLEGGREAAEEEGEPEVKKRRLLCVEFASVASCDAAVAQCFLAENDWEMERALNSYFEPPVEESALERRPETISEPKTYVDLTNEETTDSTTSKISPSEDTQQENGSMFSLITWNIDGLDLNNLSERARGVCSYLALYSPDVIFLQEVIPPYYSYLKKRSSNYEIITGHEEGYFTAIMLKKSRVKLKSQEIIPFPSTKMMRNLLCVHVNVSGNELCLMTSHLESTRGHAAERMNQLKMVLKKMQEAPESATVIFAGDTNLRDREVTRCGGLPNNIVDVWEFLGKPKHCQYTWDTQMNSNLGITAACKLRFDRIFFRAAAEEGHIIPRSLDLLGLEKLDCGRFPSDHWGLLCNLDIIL
Reported endpoint: IC50 (µM)
I only need the number, in µM, no unit after it.

Hello, please tell me recorded IC50 for this one: "O=C(OCCOC12CC3CC(CC(C3)C1)C2)c1noc2c1C(=O)c1cccnc1C2=O"
20

Answer with reported IC50 of "CCOC(=O)c1noc2c1C(=O)c1nccnc1C2=O"
9.3

Look up and report measured IC50 for this entry: "O=C1c2ncccc2C(=O)c2c(COc3ccccc3Cl)noc21"
0.94

###

Please respond with reported pIC50 for every item in the list.
target: recombinant human TDP2 (Homo sapiens, UniProt O95551); assay: Recombinant TDP2 assay; format: biochemical
API: returns pIC50 as number; meaning -log10 of concentration in mol/L.

Return value of pIC50 for input CCOC(=O)c1c(C(Br)Br)oc2c1C(=O)c1ncccc1C2=O [Compound 44] , no commentary.
4.57

Write down pIC50 measured for item CCOC(=O)c1c(C)oc2c1C(=O)c1nc(Cl)ccc1C2=O [Compound 19]
4.03

Answer with the recorded pIC50 for the compound listed here: CCOC(=O)c1c(C)oc2c1C(=O)c1nc(C)ccc1C2=O [Compound 21]
4.68

Determine its reported pIC50: CCOC(=O)c1c(CBr)oc2c1C(=O)c1ncccc1C2=O [Compound 43]
4.68

Output pIC50 of COc1ccc(-c2noc3c2C(=O)c2cccnc2C3=O)cc1OC [Compound 70]
6.34

Could you please provide reported pIC50 for N#Cc1ccc(-c2noc3c2C(=O)c2cccnc2C3=O)c(F)c1 [Compound 71] ? Thanks!
6.13

Look up and report measured pIC50 for this entry: CCOC(=O)c1c(CN2CCOCC2)oc2c1C(=O)c1ncccc1C2=O [Compound 46]
4.66

Quickly give me recorded pIC50 for CCOC(=O)c1c(C)oc2c1C(=O)c1nccc(CC)c1C2=O [Compound 36]
4.55

Indicate the recorded pIC50 value for this compound: CCOC(=O)c1noc2c1C(=O)c1cnccc1C2=O [Compound 50]
5.27

Let me know recorded pIC50 for O=C(OCCc1ccc(Cl)cc1)c1noc2c1C(=O)c1ncccc1C2=O [Compound 56] , thanks.
4.82

Note down pIC50 recorded for O=C(OCCc1ccc([N+](=O)[O-])cc1)c1noc2c1C(=O)c1cccnc1C2=O [Compound 62]
4.96

Output pIC50 of CCOC(=O)c1c(-c2ccccc2)oc2c1C(=O)c1cccnc1C2=O [Compound 42]
4.33

Supply recorded pIC50 for CCOC(=O)c1c(C=O)oc2c1C(=O)c1ncccc1C2=O [Compound 49] here.
5.28

Give reported pIC50 value for N#CCCOC(=O)c1noc2c1C(=O)c1cccnc1C2=O [Compound 60]
5.00

Provide measured pIC50 value, entry: CCOC(=O)c1c(C)oc2c1C(=O)c1nccnc1C2=O [Compound 14]
4.21

# return recorded pIC50 for input O=C1c2ncccc2C(=O)c2c(COc3ccccc3)noc21 [Compound 65]
6.09

Return pIC50 for the following compound: CCOC(=O)c1c(CN2CCSCC2)oc2c1C(=O)c1ncccc1C2=O [Compound 47]
4.51

Identify the reported pIC50 for the following entry. CCOC(=O)c1noc2c1C(=O)c1ccncc1C2=O [Compound 51]
4.92

Using known records, supply pIC50 for N#Cc1ccc(OCc2noc3c2C(=O)c2cccnc2C3=O)cc1F [Compound 69]
6.02

Output measured pIC50 for this item: O=C(OCCc1ccc(Cl)cc1)c1noc2c1C(=O)c1cccnc1C2=O [Compound 57]
5.00

Report pIC50, nothing else, for this compound: N#Cc1ccc(OCc2noc3c2C(=O)c2cccnc2C3=O)cc1 [Compound 68]
6.13

Given CC(C)(C)OC(=O)c1noc2c1C(=O)c1cccnc1C2=O [Compound 55] , respond with its pIC50.
5.48

Name the recorded pIC50 of the compound listed here: CCOC(=O)c1ccnc2c1C(=O)c1oc(C)c(C(=O)OCC)c1C2=O [Compound 35]
4.16

Return pIC50 for the following compound: CC(C)(C)OC(=O)c1noc2c1C(=O)c1ncccc1C2=O [Compound 54]
5.51

For the compound CCOC(=O)c1c(C)oc2c1C(=O)c1cnccc1C2=O [Compound 12] , give its measured pIC50 value.
4.49

Kindly indicate its recorded pIC50. Item: CCOC(=O)c1c(C)oc2c1C(=O)c1nc(N(C)C)ccc1C2=O [Compound 23]
4.43

Write down pIC50 measured for item CCOC(=O)c1c(-c2ccccc2)oc2c1C(=O)c1ncccc1C2=O [Compound 41]
4.55
